Target Under Test: VAV1 (Homo sapiens, UniProt P15498+Q96SW2)
Construct: A heterozygous VAV1 C-terminal HiBiT knock-in pool was generated at Monte Rosa Therapeutics from a clonal Jurkat cell; endogenous in cells; host or cells: Jurkat clone stably expressing LgBiT, homozygous GSPT1-G575N; heterozygous VAV1-HiBiT knock-in pool
Test Method Notes: VAV1 degradation activity, VAV1-HiBiT knock-in Jurkat luminescence assay (Example A, Table 1)
Type: cell-based
Condition Notes: Jurkat, VAV1-HiBiT knock-in Jurkat cells, luminescence read at 6 and 24 hours; read-out: VAV1 Dmax %
Endpoint: Dmax (%)
One number for each entry, in %.

Here are 2 molecules together with their reported answers.
{"Molecule": "O=C1CCC(c2cccc(-c3ccc(OCc4ccccn4)cc3)c2Cl)C(=O)N1 (centres unmarked)", "Dmax / %": 93.6}
{"Molecule": "O=C1CCC(c2cccc(-c3ccc(N4C(=O)CC45CCC5)cc3)c2Cl)C(=O)N1 (centres unmarked)", "Dmax / %": 76.3}

List reported Dmax for each of these molecules:
1. O=C1CCC(c2cccc(-c3ccc(-n4cccc(C(F)(F)F)c4=O)cc3)c2Cl)C(=O)N1 (centres unmarked)
2. Cn1ccc(OCc2ccc(-c3cccc(C4CCC(=O)NC4=O)c3Cl)cc2)n1 (centres unmarked)
3. Cn1ccc(COc2ccc(-c3cccc([C@@H]4CCC(=O)NC4=O)c3Cl)cc2)n1
4. O=C1CCC(c2cccc(-c3ccc(NC(=O)c4ccon4)cc3)c2Cl)C(=O)N1 (centres unmarked)

96.8
94.5
93.3
82.7

List reported Dmax for each of these molecules:
1. O=C1CCC(c2cccc(-c3ccc(N4C(=O)C5CC4C5)cc3)c2Cl)C(=O)N1 (centres unmarked)
2. O=C1CCC(c2cccc(-c3ccc(N4CCCCC4=O)cc3)c2Cl)C(=O)N1 (centres unmarked)

1. 46
2. 95.4

Cited source: patent US12257247B2
